This collection of values is drawn from paper PMC11859184.

For each record, write down the corresponding tissue uptake at 4 h.
# protocolNotes: Ex vivo biodistribution of 177Lu-labeled ligands in PC-3 tumor-bearing mice
# conditionDescription: mouse, testes, intravenous, 4 h pi, n = 5; read-out: Testes uptake
Give bare numbers, in %ID/g.

CC(C)C[C@H](NC(=O)[C@H](Cc1cnc[nH]1)N(C)C(=O)CNC(=O)[C@@H](NC(=O)[C@H](C)NC(=O)[C@H](Cc1c[nH]c2ccccc12)NC(=O)[C@H](CCC(N)=O)NC(=O)[C@@H](Cc1ccccc1)NC(=O)CN1CCC(NC(=O)CN2CCN(CC(=O)O)CCN(CC(=O)O)CCN(CC(=O)O)CC2)CC1)C(C)(C)C)C(=O)N1CC(F)(F)C[C@H]1C(N)=O [[^177Lu]Lu-LW02060, metal not drawn]: 0.04

Please look at the following compound next.
Q: // lookup tissue uptake at 4 h for CC(C)C[C@@H](CN1CC(F)(F)C[C@H]1C(N)=O)NC(=O)[C@H](Cc1c[nH]cn1)NC(=O)CN(C)C(=O)[C@@H](NC(=O)[C@H](C)NC(=O)[C@H](Cc1c[nH]c2ccccc12)NC(=O)[C@H](CCC(N)=O)NC(=O)[C@@H](Cc1ccccc1)NC(=O)CN1CCC(NC(=O)CN2CCN(CC(=O)O)CCN(CC(=O)O)CCN(CC(=O)O)CC2)CC1)C(C)C [[^177Lu]Lu-LW02080, metal not drawn]
A: 0.03
